- Test system: S. aureus NRS119 (MRSA)
- Test summary: MBC, plating onto TSA
- Format: cell-based, Staphylococcus aureus
- Measurement setup: Staphylococcus aureus, MRSA|NRS119
MBC overview
Lab book: enter the figure in µg/mL, no units written.

Below are worked cases with known answers.
[H]/N=C(\N)NN=C(C)c1sc(-c2ccc(-c3ccc(F)cc3)cc2)nc1C [22b]    11.7
[H]/N=C(\N)NN=C(C)c1sc(-c2ccc(-c3ccc(C(C)=O)cc3)cc2)nc1C [22d]    12.5
[H]/N=C(\N)NN=C(C)c1sc(-c2ccc(-c3cccc4ccccc34)cc2)nc1C    1.6

Now consider a different compound.
query: Could you tell me which MBC is on file for [H]/N=C(\N)NN=C(C)c1sc(-c2ccc(-c3ccc(C(F)(F)F)cc3)cc2)nc1C [22c] ?
result: 6.7

###

- System: S. aureus USA300 (MRSA)
- Test summary: MBC, plating onto TSA
- Type: cell-based, Staphylococcus aureus
- Measurement setup: Staphylococcus aureus, MRSA|USA300
Just a reminder that ties go to no (0): only MBC strictly below 6 mg/L counts as yes (1).

CN[C@H](CC(C)C)C(=O)N[C@H]1C(=O)N[C@@H](CC(N)=O)C(=O)N[C@H]2C(=O)N[C@H]3C(=O)N[C@H](C(=O)N[C@H](C(=O)O)c4cc(O)cc(O)c4-c4cc3ccc4O)[C@H](O)c3ccc(c(Cl)c3)Oc3cc2cc(c3O[C@@H]2O[C@H](CO)[C@@H](O)[C@H](O)[C@H]2O[C@H]2C[C@](C)(N)[C@H](O)[C@H](C)O2)Oc2ccc(cc2Cl)[C@H]1O [Vancomycin, reference compound]    yes (1)
[H]/N=C(\N)NN=C(C)c1sc(-c2ccc(-c3ccc(C(C)=O)cc3)cc2)nc1C [22d]    no (0)
[H]/N=C(\N)NN=C(C)c1sc(-c2ccc(-c3ccc(C(F)(F)F)cc3)cc2)nc1C [22c]    no (0)

Pending compound:
query: For this compound, is MBC lower than 6 mg/L? [H]/N=C(\N)NN=C(C)c1sc(-c2ccc(-c3cccc4ccccc34)cc2)nc1C
result: yes (1)

###

As shown below, each of these molecules has a reported MBC value.
- Test system: S. aureus VRS5 (VRSA)
- Test summary: MBC, plating onto TSA
- Type: cell-based, Staphylococcus aureus
- Measurement setup: Staphylococcus aureus, VRSA

query: Requested field: MBC. Item: [H]/N=C(\N)NN=C(C)c1sc(-c2ccc(-c3ccc(C(F)(F)F)cc3)cc2)nc1C [22c]
result: 6.7 µg/mL

query: Field request: MBC | item: [H]/N=C(\N)NN=C(C)c1sc(-c2ccc(-c3ccc(C(C)=O)cc3)cc2)nc1C [22d]
result: 6.3 µg/mL

query: Give its MBC value. Item: [H]/N=C(\N)NN=C(C)c1sc(-c2ccc(-c3cccc4ccccc34)cc2)nc1C [compound 25]
result: 3.2 µg/mL

query: Given the entry [H]/N=C(\N)NN=C(C)c1sc(-c2ccc(-c3ccc(F)cc3)cc2)nc1C [22b] , report its measured MBC.
result: 2.9 µg/mL

query: Please look up its MBC: CN[C@H](CC(C)C)C(=O)N[C@H]1C(=O)N[C@@H](CC(N)=O)C(=O)N[C@H]2C(=O)N[C@H]3C(=O)N[C@H](C(=O)N[C@H](C(=O)O)c4cc(O)cc(O)c4-c4cc3ccc4O)[C@H](O)c3ccc(c(Cl)c3)Oc3cc2cc(c3O[C@@H]2O[C@H](CO)[C@@H](O)[C@H](O)[C@H]2O[C@H]2C[C@](C)(N)[C@H](O)[C@H](C)O2)Oc2ccc(cc2Cl)[C@H]1O [Vancomycin, reference compound]
result: > 190 µg/mL

###

- Test system: S. aureus NRS194 (MRSA)
- Test summary: MBC, plating onto TSA
- Type: cell-based, Staphylococcus aureus
- Measurement setup: Staphylococcus aureus, MRSA|NRS194
# MBC listing for each entry below
Could you give me the number in µg/mL? Just the number is fine.

Record excerpt, results attached:
[H]/N=C(\N)NN=C(C)c1sc(-c2ccc(-c3ccc(F)cc3)cc2)nc1C [22b]    11.7
CN[C@H](CC(C)C)C(=O)N[C@H]1C(=O)N[C@@H](CC(N)=O)C(=O)N[C@H]2C(=O)N[C@H]3C(=O)N[C@H](C(=O)N[C@H](C(=O)O)c4cc(O)cc(O)c4-c4cc3ccc4O)[C@H](O)c3ccc(c(Cl)c3)Oc3cc2cc(c3O[C@@H]2O[C@H](CO)[C@@H](O)[C@H](O)[C@H]2O[C@H]2C[C@](C)(N)[C@H](O)[C@H](C)O2)Oc2ccc(cc2Cl)[C@H]1O [Vancomycin, reference compound]    0.7
[H]/N=C(\N)NN=C(C)c1sc(-c2ccc(-c3ccc(C(F)(F)F)cc3)cc2)nc1C [22c]    13.3
[H]/N=C(\N)NN=C(C)c1sc(-c2ccc(-c3ccc(C(C)=O)cc3)cc2)nc1C [22d]    6.3

query: GET /values?readout=MBC&item= [H]/N=C(\N)NN=C(C)c1sc(-c2ccc(-c3cccc4ccccc34)cc2)nc1C [compound 25]
result: 1.6

###

- System: S. aureus USA300 (MRSA)
- Test summary: MIC, broth microdilution
- Format: cell-based, Staphylococcus aureus
- Measurement setup: Staphylococcus aureus, MRSA|USA300
Mark satisfied only for MIC values smaller than 6 µg/mL; exact matches and larger values are not satisfied.

[H]/N=C(\N)NN=C(C)c1sc(-c2ccc(-c3cccc4ccccc34)cc2)nc1C    satisfied
[H]/N=C(\N)NN=C(C)c1sc(-c2ccc(-c3ccc(C(C)=O)cc3)cc2)nc1C [22d]    not satisfied
CN[C@H](CC(C)C)C(=O)N[C@H]1C(=O)N[C@@H](CC(N)=O)C(=O)N[C@H]2C(=O)N[C@H]3C(=O)N[C@H](C(=O)N[C@H](C(=O)O)c4cc(O)cc(O)c4-c4cc3ccc4O)[C@H](O)c3ccc(c(Cl)c3)Oc3cc2cc(c3O[C@@H]2O[C@H](CO)[C@@H](O)[C@H](O)[C@H]2O[C@H]2C[C@](C)(N)[C@H](O)[C@H](C)O2)Oc2ccc(cc2Cl)[C@H]1O [Vancomycin, reference compound]    satisfied

Kindly review the next compound as well.
query: Item [H]/N=C(\N)NN=C(C)c1sc(-c2ccc(-c3ccc(C(F)(F)F)cc3)cc2)nc1C [22c] : MIC beneath 6 µg/mL, strictly?
result: not satisfied

###

- Tested on: S. aureus USA500 (MRSA)
- Test summary: MBC, plating onto TSA
- Format: cell-based, Staphylococcus aureus
- Measurement setup: Staphylococcus aureus, MRSA|USA500
Rule for this label: met means MBC is less than 3 µg/mL; not met means MBC is at least 3 µg/mL.

Worked cases, answers included:
[H]/N=C(\N)NN=C(C)c1sc(-c2ccc(-c3ccc(F)cc3)cc2)nc1C [22b]    not met
[H]/N=C(\N)NN=C(C)c1sc(-c2ccc(-c3ccc(C(C)=O)cc3)cc2)nc1C [22d]    not met
[H]/N=C(\N)NN=C(C)c1sc(-c2ccc(-c3ccc(C(F)(F)F)cc3)cc2)nc1C [22c]    not met
[H]/N=C(\N)NN=C(C)c1sc(-c2ccc(-c3cccc4ccccc34)cc2)nc1C    not met

Next item in the queue.
query: Quick check: MBC of CN[C@H](CC(C)C)C(=O)N[C@H]1C(=O)N[C@@H](CC(N)=O)C(=O)N[C@H]2C(=O)N[C@H]3C(=O)N[C@H](C(=O)N[C@H](C(=O)O)c4cc(O)cc(O)c4-c4cc3ccc4O)[C@H](O)c3ccc(c(Cl)c3)Oc3cc2cc(c3O[C@@H]2O[C@H](CO)[C@@H](O)[C@H](O)[C@H]2O[C@H]2C[C@](C)(N)[C@H](O)[C@H](C)O2)Oc2ccc(cc2Cl)[C@H]1O [Vancomycin, reference compound] under 3 µg/mL?
result: met

###

- Tested on: S. aureus VRS5 (VRSA)
- Test summary: MIC, broth microdilution
- Type: cell-based, Staphylococcus aureus
- Measurement setup: Staphylococcus aureus, VRSA
Measured quantity: MIC (µg/mL)
Write the answer as a number in µg/mL, unit excluded.

The cases that follow already have their MIC on record.
[H]/N=C(\N)NN=C(C)c1sc(-c2ccc(-c3ccc(F)cc3)cc2)nc1C [22b]    2.9
[H]/N=C(\N)NN=C(C)c1sc(-c2ccc(-c3ccc(C(F)(F)F)cc3)cc2)nc1C [22c]    6.7
[H]/N=C(\N)NN=C(C)c1sc(-c2ccc(-c3ccc(C(C)=O)cc3)cc2)nc1C [22d]    6.3

# ---- query compound ----
query: Which MIC is reported for this compound? [H]/N=C(\N)NN=C(C)c1sc(-c2ccc(-c3cccc4ccccc34)cc2)nc1C [compound 25]
result: 3.2

###

- Tested on: S. aureus NRS19 (VISA)
- Test summary: MBC, plating onto TSA
- Format: cell-based, Staphylococcus aureus
- Measurement setup: Staphylococcus aureus, NRS19|VISA
Measured quantity: MBC (µg/mL)
Please state the figure in µg/mL; there is no need to write the unit.

query: I would be grateful if you could share the reported MBC for [H]/N=C(\N)NN=C(C)c1sc(-c2ccc(-c3ccc(C(C)=O)cc3)cc2)nc1C [22d] .
result: 12.5

query: Would you mind telling me what MBC value was observed for [H]/N=C(\N)NN=C(C)c1sc(-c2ccc(-c3ccc(F)cc3)cc2)nc1C [22b] ?
result: 5.9

query: Using the record for [H]/N=C(\N)NN=C(C)c1sc(-c2ccc(-c3ccc(C(F)(F)F)cc3)cc2)nc1C [22c] , report its MBC.
result: 3.3

query: I would be grateful if you could share the reported MBC for [H]/N=C(\N)NN=C(C)c1sc(-c2ccc(-c3cccc4ccccc34)cc2)nc1C [compound 25] .
result: 1.6
